A collection of molecules and their measured Selectivity index SI = IC50(normal cell)/IC50(cancer cell line)
# Tested on: HuCCA-1 (Cholangiocarcinoma)
# conditions used: MRC-5 vs HuCCA-1
measure: Selectivity index SI = IC50(normal cell)/IC50(cancer cell line)

molecule: Cc1cc(C=O)cc(C)c1Oc1cc(Oc2c(C)cc(C=O)cc2C)c2ccncc2n1 [Compound 14a]
value operator: =
experimental value: 3.01
--
molecule: Cc1cc(C=O)cc(C)c1Oc1cc(Oc2c(C)cc(C=O)cc2C)c2cnccc2n1 [Compound 13a]
value operator: =
experimental value: 1.61
--
molecule: COc1cccc2c1C(=O)c1c(O)c3c(c(O)c1C2=O)C[C@@](O)(C(=O)CO)C[C@@H]3O[C@H]1C[C@H](N)[C@H](O)[C@H](C)O1 [doxorubicin, reference compound]
value operator: =
experimental value: 3.44
--
molecule: Cc1cc(C#N)cc(C)c1Oc1cc(Oc2c(C)cc(C#N)cc2C)c2cnccc2n1 [Compound 13b]
value operator: >
experimental value: 3.67
